Where these numbers come from: the RNAGym collection of RNA variant scans (doi:10.7554/elife.80360)

B1: HDV Ribozyme (parent)
chain: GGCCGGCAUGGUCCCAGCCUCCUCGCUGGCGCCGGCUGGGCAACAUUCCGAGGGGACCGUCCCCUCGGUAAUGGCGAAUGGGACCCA

variants of: B1; assay: self-cleavage, relative activity (ratio to wild type); higher = more cleavage; co-transcriptional
Label 1.0 when self-cleavage >= 0.4; otherwise 0.0.

## Input hey, is self-cleavage for this one >= 0.4? C22G C41U
## Output 0.0

## Input Proceed to C30A A43G
## Output 0.0

## Input Proceed to U47G G59C
## Output 1.0

## Input Proceed to C26U A87U
## Output 1.0

## Input Proceed to U23G A77U
## Output 0.0

## Input Proceed to C24U A42G
## Output 0.0

## Input Proceed to C13U C44G
## Output 0.0

## Input Proceed to G31U C44U
## Output 0.0

## Input Proceed to C48G G67C
## Output 1.0

## Input Proceed to G54A C61U
## Output 1.0

## Input Proceed to C14U G82C
## Output 1.0
